# System: NCI-H460
# Assay protocol: Antiproliferative activity against human NCI-H460 cells after 48 hrs by MTT assay
# Assay type: functional, cell-based
# Condition summary: NCI-H460, 48 h
pIC50: −log10 of the molar value.
Threshold check on pIC50: at or above 6 gives Met, strictly below gives Not met.

> print(dat)
                          chemical.structure  class.assignment
 1  COc1cc(-c2cccc3nc(-c4ccc(Cl)cc4)oc23)cc(OC)c1OC           Not met
 2  COc1cc(-c2cccc3nc(-c4ccc5cc[nH]c5c4)oc23)cc(OC)c1OC               Met
 3  COc1cc(-c2cccc3nc(-c4ccco4)oc23)cc(OC)c1OC           Not met
 4  COc1cc(-c2cccc3nc(-c4ccc(N)cc4)oc23)cc(OC)c1OC               Met
 5  COc1cc(OC)cc(-c2nc3c(-c4cc(OC)c(OC)c(OC)c4)cccc3o2)c1           Not met
 6  COc1cc(-c2cccc3oc(-c4ccc(F)cc4)nc23)cc(OC)c1OC           Not met
 7  COc1cc(-c2cccc3nc(-c4cccc(Cl)c4)oc23)cc(OC)c1OC           Not met
 8  COc1cc(-c2cccc3oc(-c4cccc(F)c4)nc23)cc(OC)c1OC           Not met
 9  COc1ccc(-c2nc3cccc(-c4cc(OC)c(OC)c(OC)c4)c3o2)cc1           Not met
10  COc1cc(-c2cccc3nc(-c4cccs4)oc23)cc(OC)c1OC           Not met

---

# Assay protocol: Inhibition of pig brain tubulin polymerization at 1 uM by spectrometric method relative to control
# Format: tissue-based, Sus scrofa
pIC50: −log10 of the molar value.
Readout name: pIC50

> print(dat)
                         chemical.structure  readout.name  assay.result
1  COc1cc(-c2cccc3nc(-c4cccc(O)c4)oc23)cc(OC)c1OC         pIC50          5.30

---

# System: NCI-H460
# Assay protocol: Antiproliferative activity against human NCI-H460 cells after 48 hrs by MTT assay
# Format: functional, cell-based
# Condition summary: NCI-H460, 48 h
Readout name: IC50

> print(dat)
                                    compound  assay.result
 1  COc1ccc(-c2nc3c(-c4cc(OC)c(OC)c(OC)c4)cccc3o2)cc1F       19.9 µM
 2  COc1ccc(-c2nc3cccc(-c4cc(OC)c(OC)c(OC)c4)c3o2)cc1OC       > 25 µM
 3  COc1ccc(-c2nc3c(-c4cc(OC)c(OC)c(OC)c4)cccc3o2)cc1OC        8.9 µM
 4  COc1cc(-c2cccc3nc(-c4cccc(C)c4)oc23)cc(OC)c1OC       > 25 µM
 5  COc1cc(-c2cccc3nc(-c4cccc(Br)c4)oc23)cc(OC)c1OC        3.8 µM
 6  COc1cc(-c2cccc3nc(-c4cccc(F)c4)oc23)cc(OC)c1OC        3.3 µM
 7  COc1cc(-c2cccc3oc(-c4ccccc4)nc23)cc(OC)c1OC          9 µM
 8  COc1ccc(-c2cccc3nc(-c4ccc5cc[nH]c5c4)oc23)c(OC)c1OC       > 25 µM
 9  COc1cc(-c2cccc3nc(-c4ccc(Br)cc4)oc23)cc(OC)c1OC       > 25 µM
10  COc1cc(-c2nc3cccc(-c4cc(OC)c(OC)c(OC)c4)c3o2)ccc1O          2 µM
11  COc1cc(-c2cccc3nc(-c4ccc(F)cc4)oc23)cc(OC)c1OC        8.7 µM
12  COc1cccc(-c2nc3cccc(-c4cc(OC)c(OC)c(OC)c4)c3o2)c1       > 25 µM
13  COc1ccc(-c2nc3cccc(-c4cc(OC)c(OC)c(OC)c4)c3o2)cc1F        2.8 µM
14  COc1ccc(C2CNC(=O)C2)cc1OC1CCCC1 (stereo unspecified)      > 100 µM
15  COc1cc(-c2cccc3oc(-c4ccc(C)cc4)nc23)cc(OC)c1OC        3.1 µM
16  COc1cc(-c2cccc3oc(-c4ccc(Cl)cc4)nc23)cc(OC)c1OC        8.6 µM
17  COc1cc(-c2cccc3nc(-c4cccc(N)c4)oc23)cc(OC)c1OC        2.6 µM
18  COc1cc(-c2cccc3nc(-c4ccccc4)oc23)cc(OC)c1OC        6.8 µM
19  COc1cc(-c2cccc3nc(-c4ccc(C)cc4)oc23)cc(OC)c1OC        1.9 µM
20  COc1cc(-c2cccc3nc(-c4cccc(O)c4)oc23)cc(OC)c1OC        1.9 µM
21    COc1ccc(/C=C\c2cc(OC)c(OC)c(OC)c2)cc1O      0.076 µM
